Target: T1, TNC III1-5 (human, UniProt P24821 622-1074)
T1 construct: The secreted protein in the assays lacks the leader; also called TG-TNC III1-5; engineered TNC III1-5
T1 sequence: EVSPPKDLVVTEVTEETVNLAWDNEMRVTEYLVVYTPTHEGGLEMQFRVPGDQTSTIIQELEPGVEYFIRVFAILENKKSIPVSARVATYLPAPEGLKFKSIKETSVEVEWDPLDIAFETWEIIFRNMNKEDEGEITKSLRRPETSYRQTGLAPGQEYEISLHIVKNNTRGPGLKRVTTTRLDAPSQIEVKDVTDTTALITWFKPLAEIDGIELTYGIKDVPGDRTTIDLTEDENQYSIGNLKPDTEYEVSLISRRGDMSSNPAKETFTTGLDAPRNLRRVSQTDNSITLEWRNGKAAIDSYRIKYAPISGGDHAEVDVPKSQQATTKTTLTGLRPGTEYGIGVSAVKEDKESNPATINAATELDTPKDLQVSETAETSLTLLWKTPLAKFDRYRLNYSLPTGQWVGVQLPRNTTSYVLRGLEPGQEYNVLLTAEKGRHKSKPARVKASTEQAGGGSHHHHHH
Test: ELISA: cytokine coated (50 nM), 100 nM TNC III1-5 in solution, HRP-anti-His, A450; black bars without, white bars with 4 µM heparin

BINDER	binding result
VEGF-A165 (ligand, UniProt P15692-4 27-191, looked up) APMAEGGGQNHHEVVKFMDVYQRSYCHPIETLVDIFQEYPDEIEYIFKPSCVPLMRCGGCCNDEGLECVPTEESNITMQIMRIKPHQGQHIGEMSFLQHNKCECRPKKDRARQENPCGPCSERRKHLFVQDPQTCKCSCKNTDSRCKARQLELNERTCRCDKPRR	binds
FGF-18 (ligand, UniProt O76093 28-207, looked up) EENVDFRIHVENQTRARDDVSRKQLRLYQLYSRTSGKHIQVLGRRISARGEDGDKYAQLLVETDTFGSQVRIKGKETEFYLCMNRKGKLVGKPDGTSKECVFIEKVLENNYTALMSAKYSGWYVGFTKKGRPRKGPKTRENQQDVHFMKRYPKGQPELQKPFKYTTVTKRSRRIRPTHPA	binds
FGF-7 (ligand, UniProt P21781 32-194, looked up) CNDMTPEQMATNVNCSSPERHTRSYDYMEGGDIRVRRLFCRTQWYLRIDKRGKVKGTQEMKNNYNIMEIRTVAVGIVAIKGVESEFYLAMNKEGKLYAKKECNEDCNFKELILENHYNTYASAKWTHNGGEMFVALNQKGIPVRGKKTKKEQKTAHFLPMAIT	binds

Origin of the recorded values: patent US20140011978A1
